test: in vitro; details: human
REPORTED_METRIC: CC50 (µM)
Give a bare numeral; the unit µM is implied.

[ask] Requested read-out: CC50. Entry: CCC(CC)COC(=O)[C@H](C)N[P@](=O)(OC[C@H]1O[C@@](C#N)(c2ccc3c(N)ncnn23)[C@H](O)[C@@H]1O)Oc1ccccc1 [Remdesivir, reference compound]
[reply] 49.2

====

test: in vitro; settings: human
REPORTED_METRIC: CC50 at 3 days (µM)
Give a bare numeral; the unit µM is implied.

[ask] Requested read-out: CC50 at 3 days. Entry: C/C=C/C[C@@H](C)[C@@H](O)[C@H]1C(=O)N[C@@H](CC)C(=O)N(C)[C@H](SCCN(C)C)C(=O)N(C)[C@@H](CC(C)(C)O)C(=O)N[C@@H](C(C)C)C(=O)N(C)[C@@H](CC(C)C)C(=O)N[C@@H](C)C(=O)N[C@H](C)C(=O)N(C)[C@@H](CC(C)C)C(=O)N(C)[C@@H](CC(C)C)C(=O)N(C)[C@@H](C(C)C)C(=O)N1C
[reply] 46.8
